Data credit: a collection of fitness landscapes (doi:10.1016/j.celrep.2020.107928)

# one-hybrid fitness for binding NBS DNA listing for each entry below
B1: Caulobacter ParB omega fusion; a variant is named by its letters at X, in order, B8GW30 (parent)
chain: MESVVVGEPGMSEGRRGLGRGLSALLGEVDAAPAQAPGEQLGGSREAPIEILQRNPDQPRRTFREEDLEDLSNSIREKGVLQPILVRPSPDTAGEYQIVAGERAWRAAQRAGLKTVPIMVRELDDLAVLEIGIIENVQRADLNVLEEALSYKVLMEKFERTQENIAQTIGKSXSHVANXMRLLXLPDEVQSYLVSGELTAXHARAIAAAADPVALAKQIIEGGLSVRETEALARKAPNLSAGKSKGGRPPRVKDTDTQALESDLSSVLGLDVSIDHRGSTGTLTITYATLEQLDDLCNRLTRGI

# Variants of: B1
# PROTOCOL: one-hybrid fitness for binding NBS DNA (the Noc-binding site; scaled: cognate 1, non-cognate 0); higher = stronger binding
# RECORDED CONDITIONS: with NBS DNA site
The full ranking holds about 81,000 sequences; the median of “one-hybrid fitness for binding NBS DNA” is about -0.1, and the highest 2% start at about 0.36. The sample holds the highest values, similar sequences and a random draw of the others, so the mix is not that of the screen.
QUANTITY KIND: one-hybrid fitness for binding NBS DNA

INSERT INTO assay_data (variant_designation, endpoint_value) VALUES
  ('QSRD', 0.219),
  ('HYQF', '≤ 0.2'),
  ('QMQS', 0.394),
  ('RKKY', 0.38),
  ('RDCF', '≤ 0.2'),
  ('QRWN', '≤ 0.2'),
  ('SLSN', '≤ 0.2'),
  ('RKVN', '≤ 0.2'),
  ('QRRN', 0.547),
  ('QVKY', 0.383),
  ('QYRR', 0.979),
  ('ASVF', '≤ 0.2'),
  ('RKHH', 0.245),
  ('QVKD', '≤ 0.2'),
  ('QRRP', 0.359),
  ('QVKQ', 0.241),
  ('QRSM', 0.374),
  ('QVVY', '≤ 0.2'),
  ('FNIT', '≤ 0.2'),
  ('QTDN', '≤ 0.2'),
  ('QMQH', '≤ 0.2'),
  ('QTRP', 0.401),
  ('RKVY', '≤ 0.2'),
  ('NRFT', '≤ 0.2'),
  ('VYLS', '≤ 0.2'),
  ('RKVD', '≤ 0.2'),
  ('MIPC', '≤ 0.2'),
  ('RCWT', 0.418),
  ('RYMW', '≤ 0.2'),
  ('QCRD', 0.384),
  ('KRAT', 0.572),
  ('QRSH', 0.522),
  ('DRFT', '≤ 0.2'),
  ('QPSM', '≤ 0.2'),
  ('VCVG', '≤ 0.2'),
  ('QYGG', '≤ 0.2'),
  ('RGQR', '≤ 0.2'),
  ('KRFT', 0.565),
  ('AVHL', '≤ 0.2'),
  ('CTTF', '≤ 0.2'),
  ('YKNV', '≤ 0.2'),
  ('QSSH', '≤ 0.2'),
  ('QPQS', '≤ 0.2'),
  ('SHAM', '≤ 0.2'),
  ('SYLG', '≤ 0.2'),
  ('QTDD', '≤ 0.2'),
  ('GYFR', '≤ 0.2'),
  ('RKKP', '≤ 0.2'),
  ('QHIS', 0.258),
  ('FGAF', '≤ 0.2'),
  ('CLCV', '≤ 0.2'),
  ('RPWT', '≤ 0.2'),
  ('QCSM', '≤ 0.2'),
  ('QRSN', 0.366),
  ('RCKY', 0.318),
  ('QVKP', '≤ 0.2'),
  ('HISC', '≤ 0.2'),
  ('HGTC', '≤ 0.2'),
  ('ALQE', '≤ 0.2'),
  ('QPSN', '≤ 0.2'),
  ('QYCN', '≤ 0.2'),
  ('NECS', '≤ 0.2'),
  ('QVKM', 0.229),
  ('QYER', 0.31),
  ('RKKD', '≤ 0.2'),
  ('QHQS', 0.394),
  ('KIRV', '≤ 0.2'),
  ('SAAD', '≤ 0.2'),
  ('QVKH', 0.38),
  ('RKDY', '≤ 0.2'),
  ('SKSC', '≤ 0.2'),
  ('QRYN', 0.319),
  ('QTYP', '≤ 0.2'),
  ('QSSC', '≤ 0.2'),
  ('LKMV', '≤ 0.2'),
  ('NSML', '≤ 0.2'),
  ('VMEC', '≤ 0.2'),
  ('RKKS', 0.653),
  ('RKRY', 0.366),
  ('QYGR', 0.553),
  ('NATF', '≤ 0.2'),
  ('QRWS', 0.54),
  ('QVVT', 0.248),
  ('QVKN', '≤ 0.2'),
  ('QTRD', 0.379),
  ('QCSH', 0.272),
  ('DLYM', '≤ 0.2'),
  ('RKYY', '≤ 0.2'),
  ('TPSP', '≤ 0.2'),
  ('RKVS', 0.426),
  ('QRRD', 0.356);
